Tested target: Sodium channel protein type 1 subunit alpha (Homo sapiens, UniProt P35498)
Assay notes: Inhibition of human NaV1.1
Assign IC50 to each entry below.
The reply should be a number in nM, with the unit left off.

Input: Fill blank: measured IC50 of the compound O=C(NCc1ccc(OC(F)(F)F)c(Cl)c1)c1ccc(S(=O)(=O)Nc2ncns2)c(F)c1 is ____.
Output: 12

Input: Fill blank: measured IC50 of the compound O=C(Nc1ccc(S(=O)(=O)Nc2nccs2)cc1)C(c1ccccc1)c1ccccc1 is ____.
Output: 32

Input: Fill blank: measured IC50 of the compound O=C(NCc1ccc(OC(F)(F)F)c(Cl)c1)c1ccc(S(=O)(=O)Nc2nccs2)c(F)c1 is ____.
Output: 20

Input: Fill blank: measured IC50 of the compound O=S(=O)(Nc1ncns1)c1ccc(OCc2ccc(OC(F)(F)F)c(Cl)c2)cc1 is ____.
Output: 455

----------
Assay notes: Lipophilicity, log D of the compound
Format: physicochemical
Test conditions: octanol/water
Outcome measure: logD
Please reply with the value in numeric form only.

Input: Fill blank: measured logD of the compound O=S(=O)(Nc1nccs1)c1ccc(S(=O)(=O)N2CC(Oc3ccccc3)C2)cc1F is ____.
Output: 1.4

Input: Fill blank: measured logD of the compound O=C(NCc1ccc(OC(F)(F)F)c(Cl)c1)c1ccc(S(=O)(=O)Nc2cncnc2)c(F)c1 is ____.
Output: 2

Input: Fill blank: measured logD of the compound O=C(COc1ccc(F)cc1)N1CCc2cc(S(=O)(=O)Nc3nccs3)ccc21 is ____.
Output: 1.8

Input: Fill blank: measured logD of the compound O=C(NCc1ccc(OC(F)(F)F)c(Cl)c1)c1ccc(S(=O)(=O)Nc2ncc(F)cn2)c(F)c1 is ____.
Output: 2.1

Input: Fill blank: measured logD of the compound O=S(=O)(Nc1ncns1)c1ccc(OCc2ccc(OC(F)(F)F)c(Cl)c2)cc1 is ____.
Output: 2.65

Input: Fill blank: measured logD of the compound O=S(=O)(Nc1nccs1)c1ccc(S(=O)(=O)N2CC[C@H](Oc3c(Cl)cccc3Cl)C2)cc1F is ____.
Output: 2.6

Input: Fill blank: measured logD of the compound O=C(Nc1ccc(S(=O)(=O)Nc2nccs2)cc1)C(c1ccccc1)c1ccccc1 is ____.
Output: 3.3

Input: Fill blank: measured logD of the compound O=C(NCc1ccc(C(F)(F)F)cc1)c1ccc(S(=O)(=O)Nc2nccs2)cc1 is ____.
Output: 2.5

Input: Fill blank: measured logD of the compound O=C(NCc1ccc(OC(F)(F)F)c(Cl)c1)c1ccc(S(=O)(=O)Nc2ncns2)c(F)c1 is ____.
Output: 2.1

----------
Assign IC50 to each entry below.
Tested target: Sodium channel protein type 9 subunit alpha (Homo sapiens)
Sequence (Q15858 whole entry): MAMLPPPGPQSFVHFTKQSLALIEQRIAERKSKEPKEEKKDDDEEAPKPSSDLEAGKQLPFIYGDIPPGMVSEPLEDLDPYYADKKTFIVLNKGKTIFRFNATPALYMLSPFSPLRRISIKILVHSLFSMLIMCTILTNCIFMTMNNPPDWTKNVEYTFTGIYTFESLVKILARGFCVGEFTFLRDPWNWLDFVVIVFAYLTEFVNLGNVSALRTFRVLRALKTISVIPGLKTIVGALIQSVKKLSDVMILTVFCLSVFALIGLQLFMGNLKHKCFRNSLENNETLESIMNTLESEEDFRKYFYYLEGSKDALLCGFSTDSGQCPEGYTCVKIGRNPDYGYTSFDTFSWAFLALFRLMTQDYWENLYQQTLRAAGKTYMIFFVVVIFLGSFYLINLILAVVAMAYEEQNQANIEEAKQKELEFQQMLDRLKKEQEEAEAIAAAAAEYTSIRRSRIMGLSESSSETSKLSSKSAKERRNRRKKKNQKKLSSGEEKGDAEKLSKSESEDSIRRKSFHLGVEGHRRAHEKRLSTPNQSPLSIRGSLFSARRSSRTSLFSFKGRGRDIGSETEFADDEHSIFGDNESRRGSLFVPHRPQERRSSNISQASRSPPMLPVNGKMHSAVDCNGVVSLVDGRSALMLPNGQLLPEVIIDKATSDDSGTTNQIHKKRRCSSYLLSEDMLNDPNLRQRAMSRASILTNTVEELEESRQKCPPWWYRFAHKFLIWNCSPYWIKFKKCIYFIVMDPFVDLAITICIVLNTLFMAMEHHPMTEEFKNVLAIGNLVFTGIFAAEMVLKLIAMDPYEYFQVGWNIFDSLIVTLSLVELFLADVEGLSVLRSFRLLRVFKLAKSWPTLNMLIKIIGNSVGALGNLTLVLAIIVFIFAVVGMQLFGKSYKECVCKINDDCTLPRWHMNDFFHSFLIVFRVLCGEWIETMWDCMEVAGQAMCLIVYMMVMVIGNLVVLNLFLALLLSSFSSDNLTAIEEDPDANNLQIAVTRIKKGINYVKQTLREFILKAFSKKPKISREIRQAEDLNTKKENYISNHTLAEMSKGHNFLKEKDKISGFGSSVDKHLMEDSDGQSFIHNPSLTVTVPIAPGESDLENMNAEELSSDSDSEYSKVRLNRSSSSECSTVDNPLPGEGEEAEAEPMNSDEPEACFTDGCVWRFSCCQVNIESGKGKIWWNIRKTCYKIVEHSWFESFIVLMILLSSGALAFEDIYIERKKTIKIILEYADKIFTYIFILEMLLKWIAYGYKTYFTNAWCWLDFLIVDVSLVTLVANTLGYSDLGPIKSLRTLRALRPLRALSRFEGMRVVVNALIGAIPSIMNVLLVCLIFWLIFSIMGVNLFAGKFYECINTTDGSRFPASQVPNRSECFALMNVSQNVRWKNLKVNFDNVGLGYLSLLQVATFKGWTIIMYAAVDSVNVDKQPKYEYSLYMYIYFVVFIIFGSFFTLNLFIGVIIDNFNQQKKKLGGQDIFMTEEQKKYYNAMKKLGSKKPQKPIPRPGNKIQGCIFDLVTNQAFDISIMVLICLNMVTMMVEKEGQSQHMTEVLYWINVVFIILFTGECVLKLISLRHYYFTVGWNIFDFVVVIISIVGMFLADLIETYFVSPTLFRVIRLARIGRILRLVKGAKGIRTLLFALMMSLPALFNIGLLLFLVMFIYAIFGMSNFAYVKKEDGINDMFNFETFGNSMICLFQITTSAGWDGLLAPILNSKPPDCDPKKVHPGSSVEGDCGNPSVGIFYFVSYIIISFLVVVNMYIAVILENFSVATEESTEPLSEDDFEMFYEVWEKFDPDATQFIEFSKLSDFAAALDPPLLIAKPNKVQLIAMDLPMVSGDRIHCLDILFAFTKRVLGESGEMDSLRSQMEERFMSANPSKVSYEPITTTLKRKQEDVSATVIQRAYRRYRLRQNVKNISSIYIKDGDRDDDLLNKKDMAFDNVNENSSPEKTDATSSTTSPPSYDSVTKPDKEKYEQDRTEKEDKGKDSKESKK
Assay notes: Inhibition of human NaV1.7

Input: Give the reported IC50 for O=C(NCc1ccc(OC(F)(F)F)c(Cl)c1)c1ccc(S(=O)(=O)Nc2nccs2)c(F)c1 (system: Sodium channel protein type 9 subunit alpha (Homo sapiens)).
Output: 0.289 µM

Input: Give the reported IC50 for O=C(NCc1ccc(OC(F)(F)F)c(Cl)c1)c1ccc(S(=O)(=O)Nc2ncns2)c(F)c1 (system: Sodium channel protein type 9 subunit alpha (Homo sapiens)).
Output: 1.8 µM

Input: Give the reported IC50 for O=S(=O)(Nc1ncns1)c1ccc(OCc2ccc(OC(F)(F)F)c(Cl)c2)cc1 (system: Sodium channel protein type 9 subunit alpha (Homo sapiens)).
Output: 5.1 µM

Input: Give the reported IC50 for O=C(Nc1ccc(S(=O)(=O)Nc2nccs2)cc1)C(c1ccccc1)c1ccccc1 (system: Sodium channel protein type 9 subunit alpha (Homo sapiens)).
Output: 5.2 µM

Source: ChEMBL document CHEMBL4257443
